# selectivity ratio values compiled below
# experiment: Selectivity index, ratio of CC50 for human RD cells to IC50 for CA16 infected in human RD cells
# Type: toxicity, cell-based
# study_conditions: read-out: Ratio CC50/IC50
observation_type: selectivity ratio

given_smiles=O=C(c1ccc(C(F)(F)F)cc1O)c1[nH]c(Cl)c(Cl)c1-n1c(C(=O)c2ccc(C(F)(F)F)cc2O)cc(Cl)c1SCCc1ccccn1 measured_result=17.5
given_smiles=O=C(c1ccc(C(F)(F)F)cc1O)c1[nH]c(Cl)c(Cl)c1-n1c(C(=O)c2ccc(C(F)(F)F)cc2O)cc(Cl)c1SCc1ccccn1 measured_result=11.5
given_smiles=Cn1nnnc1Sc1c(Cl)cc(C(=O)c2ccc(C(F)(F)F)cc2O)n1-c1c(C(=O)c2ccc(C(F)(F)F)cc2O)[nH]c(Cl)c1Cl measured_result=4.48
